Origin of values: PubChem BioAssay (NCI)

protocol: NCI Yeast Anticancer Drug Screen. Data for the mec2-1 strain (AID 157)
test_conditions: S. cerevisiae mec2-1 strain, at 50.0 µM, hits give high values
The panel holds about 79,000 compounds, 15% with a hit somewhere; the sample as a whole holds those more often.
The label depends only on growth inhibition: label 1 if it is at least 60%, label 0 if it is smaller.

Answered examples (4):
compound	group_label
CC(=O)Nc1cccc2ccc(C)cc12	label 0
c1ccc(N/N=C(/CC/C(=N\Nc2ccccc2)c2ccccc2)c2ccccc2)cc1	label 1
CS(=O)(=O)OC1COC2C(I)COC12 (stereo not given)	label 0
Cc1ccc(O)c2c(NCCCCCCNc3cc(C)[n+](C)c4c(C)ccc(O)c34)cc(C)[n+](C)c12	label 1

Q: Kindly determine if growth inhibition recorded for CCN(CC)CCCC(Nc1c2ccc(Cl)cc2nc2ccc(OC)cc12)c1cccs1 (stereo not given) is above or exactly 60%.
A: label 0

Q: Kindly determine if growth inhibition recorded for O=C(Nc1ccc(C(=O)c2ccccc2)cc1)Nc1ccc(Cl)c(Cl)c1 is above or exactly 60%.
A: label 1

Q: Kindly determine if growth inhibition recorded for COc1cc(/C=C(/C)C[N+](=O)[O-])ccc1O is above or exactly 60%.
A: label 1

Q: Kindly determine if growth inhibition recorded for Cc1c2c(c(O)c3c(O)cccc13)C(=O)C1(O)C(=O)C(C(N)=O)C(O)C(N(C)C)C1C2 (stereo not given) is above or exactly 60%.
A: label 1

Q: Kindly determine if growth inhibition recorded for N#CC1C(=O)SC2c3ccccc3C(=O)c3ccccc3C12 (stereo not given) is above or exactly 60%.
A: label 0

Q: Kindly determine if growth inhibition recorded for Cc1ccc(/C=C2\CCCc3ccccc3C2=O)cc1 is above or exactly 60%.
A: label 0

Q: Kindly determine if growth inhibition recorded for Cc1ccc(C)c(N2C(=O)C(=O)C(c3nc4ccccc4o3)C(=O)C2=O)c1 is above or exactly 60%.
A: label 1

Q: Kindly determine if growth inhibition recorded for O=Nc1cc(-c2ccccc2)c2ccccc2c1O is above or exactly 60%.
A: label 0

Q: Kindly determine if growth inhibition recorded for COc1ccc2nc3cc(Cl)ccc3c(Nc3ccc(O)c(CNCCO)c3)c2c1 is above or exactly 60%.
A: label 0

###

Entries and their measured growth inhibition follow.
protocol: NCI Yeast Anticancer Drug Screen. Data for the mec2-1 strain (AID 157)
test_conditions: S. cerevisiae mec2-1 strain, at 5.0 µM (retest, dose inferred, filed as 0.5), hits give high values
About 79,000 compounds went through this panel and 15% of them were active in at least one assay; those are over-represented in the sample as a whole.
Respond with the bare value in %.

Q: Any idea what its growth inhibition is? The compound is O=C1OC(CCCl)(c2ccccc2)CC1CN1CCOCC1 (stereo unspecified)
A: -10

Q: Any idea what its growth inhibition is? The compound is C/C(=N/O)c1cc([N+](=O)[O-])c(O)cc1O
A: -10

Q: Any idea what its growth inhibition is? The compound is CCCN1C(=O)c2ccccc2C1=O
A: 1

Q: Any idea what its growth inhibition is? The compound is COC1/C=C/OC2(C)Oc3c(C)c(OC(C)=O)c4c(c3C2=O)C(=O)C=C(NC(=O)/C(C)=C\C=C\C(C)C(O)C(C)C(O)C(C)C(OC(C)=O)C1C)C4=O (stereo unspecified)
A: -44

###

protocol: NCI Yeast Anticancer Drug Screen. Data for the bub3 strain (AID 167)
test_conditions: S. cerevisiae bub3 mutant strain, at 50.0 µM, hits give high values
The panel holds about 79,000 compounds, 15% with a hit somewhere; the sample as a whole holds those more often. Calls of active or inactive are those of the source. No stated cut-off is given here; in the data, active means growth inhibition above about 70%; inactive means the rest.
value_kind: growth inhibition

molecule	value
O=C(NNS(=O)(=O)c1ccccc1)Nc1ccccc1	7.2% (inactive)

Q: Any idea what its growth inhibition is? The molecule is COC(CCC[N+](C)(C)C)CC[N+](C)(C)C (stereo not given)
A: 97.1% (active)

Q: Any idea what its growth inhibition is? The molecule is CCOC1(OCC)Oc2c(Cl)c(Cl)c(Cl)c(Cl)c2OC1(OCC)OCC
A: 98% (active)

Q: Any idea what its growth inhibition is? The molecule is O=S(O)CCCCCSSc1ccccc1
A: 74.5% (active)

Q: Any idea what its growth inhibition is? The molecule is COC(=O)c1c(C)cccc1C(=O)c1ccc(C)cc1C
A: 5.05% (inactive)

###

protocol: NCI Yeast Anticancer Drug Screen. Data for the bub3 strain (AID 167)
test_conditions: S. cerevisiae bub3 mutant strain, at 50.0 µM
The panel holds about 79,000 compounds, 15% with a hit somewhere; the sample as a whole holds those more often. Calls of active or inactive are those of the source. Cut-off read from the data, not from the text of the source: active = growth inhibition above about 70%; inactive = the rest.
Please reply with one of these outcomes: active, inactive

compound	group_label
COC(=O)c1ccc(/C=C/C2=CC(=O)C=CC2=O)cc1	active
O=C(N=c1sc2ccccc2s1)N=c1sc2ccccc2s1	inactive
CC(C)(C)CC(C)(C)c1ccc(O)c(O)c1	active
CC(C)OC(=O)c1cc([N+](=O)[O-])cc([N+](=O)[O-])c1Sc1ncnc2nc[nH]c12	inactive
Clc1cccc(N2CCN(c3c4c(nc5ccccc35)CCCCC4)CC2)c1	active
Cc1c(C#N)c(N)nc2c(C(N)=O)nsc12	inactive
CC(=O)N(c1ccccc1)c1nc2ccccc2s1	active
O=C(/C=C/C(=O)OCCCl)OCCCl	active
COC(=O)[C@@H]1c2cc3c(c(O)c2[C@@H](OC2OC(C)C(OC)C(C)(OC)C2OC)C[C@]1(C)O)C(=O)c1c(O)cc2c(c1C3=O)O[C@H]1O[C@]2(C)[C@H](O)[C@@H](N(C)C)[C@@H]1O (stereo partly specified)	active
COC1C=COC2(C)Oc3c(C)c(O)c4c(O)c(c(C5SCCS5)c(O)c4c3C2=O)NC(=O)C(C)=C/C=C\C(C)C2OC(C)(C)OC(C2C)C(C)C(OC(C)=O)C1C (stereo unspecified)	active

Q: # fetch the recorded call for CCN(CC)c1ccc(N=Nc2ccc(-c3nc4cccn(C)c-4n3)cc2)cc1 here
A: active

Q: # fetch the recorded call for Cc1cccc(/C=N/Nc2cc(C)c3ccccc3n2)n1 here
A: active

Q: # fetch the recorded call for CCOc1c(N=Nc2ccccc2OC)c(C)nn1C(N)=S here
A: inactive

Q: # fetch the recorded call for Cc1ccc(S(=O)(=O)Nc2ccccc2Cl)cc1 here
A: active

Q: # fetch the recorded call for CCCCCCCCCCCCCCCCNC(=S)N/C=C(/C#N)C(=O)OC here
A: active

Q: # fetch the recorded call for COc1ccc2c(c1OC)C(C(Cl)(Cl)Cl)N1CCc3cc4c(cc3C1=C2)OCO4 (stereo unspecified) here
A: active

Q: # fetch the recorded call for O=C(O)CCC(=O)c1ccc(C2CCCC2)c2ccccc12 here
A: active

###

protocol: NCI Yeast Anticancer Drug Screen. Data for the sgs1 mgt1 strain (AID 161);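 also: 0% = growth of cultures given vehicle only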
test_conditions: S. cerevisiae sgs1 mgt1 strain, at 50.0 µM (retest, dose inferred, filed as 5.0), hits give high values
Procedure: Growth inhibition of yeast strains with defined genetic alterations is measured as a screen for potential anti-cancer activity. Selected strains with alterations in DNA damage repair or cell cycle control were exposed to compounds and growth inhibition was measured relative to vehicle treated controls. The strain used in this assay is sgs1 mgt1
About 79,000 compounds went through this panel and 15% of them were active in at least one assay; those are over-represented in the sample as a whole.
The label depends only on growth inhibition: 1.0 if it is at least 90%, 0.0 if it is smaller.

compound	group_label
O=C(O)/C(=C\c1ccc(F)cc1)c1ccccc1	0.0
O=C1CC(c2ccccc2)C(=O)N2C(=O)CC(c3ccccc3)C(=O)N12 (stereo unspecified)	0.0
CN(C)N=Nc1ccc(Cl)c2ncccc12	0.0
CCCCc1ccc2nc(C)cc(N/N=C/c3ccc4c(c3)OCO4)c2c1	0.0

Q: Kindly determine if growth inhibition recorded for O=[N+]([O-])c1ccc(-n2ncc3cccnc32)c([N+](=O)[O-])c1 is above or exactly 90%.
A: 1.0

Q: Kindly determine if growth inhibition recorded for O=C1C=C(Br)C(=O)C(Br)=C1 is above or exactly 90%.
A: 1.0

###

protocol: NCI Yeast Anticancer Drug Screen. Data for the sgs1 mgt1 strain (AID 161);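 also: 0% = growth of cultures given vehicle only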
test_conditions: S. cerevisiae sgs1 mgt1 strain, at 50.0 µM (retest, dose inferred, filed as 5.0), hits give high values
This is part of a sample that, as a whole, favours compounds with a hit. Of some 79,000 tested, about 15% had one in any assay. Active and inactive are the calls of the source. Rule as the data show it: active = growth inhibition above about 70%; inactive = the rest.
value_kind: growth inhibition

Below: 8 compounds and their reported growth inhibition.
compound	growth inhibition
CCCCN(CCCC)Cc1cc(Nc2c3ccc(Cl)cc3nc3ccc(OC)cc23)ccc1O	95% (active)
O=[N+]([O-])c1ccc(Oc2c(Cl)cccc2Cl)cc1	-33% (inactive)
COc1ccc(NC(=O)CCC(=O)CC(=O)c2ccncc2)cc1	-9% (inactive)
O=C(O)C(O)C(O)C(O)C(O)c1nc2ccccc2s1 (centres undefined)	96% (active)
CN1c2ccccc2C(C)(C)C12C=Cc1cc(O)ccc1O2 (centres undefined)	38% (inactive)
COc1ccc(/C=C(\C#N)c2ccccc2)cc1OC	53% (inactive)
COc1ccc(CC[N+]2(C)COc3cc4oc(=O)cc(C)c4cc3C2)cc1OC (centres undefined)	-6% (inactive)
O=C(Nc1ccccc1)OCCc1ccc(Br)cc1	-11% (inactive)

Turning to the following compound.
Q: Any idea what its growth inhibition is? The compound is CCCCN(CCCC)CCCCNc1ccc(C)c2sc3ccccc3c(=O)c12
A: 98% (active)
